Assay Remarks: NCI Yeast Anticancer Drug Screen. Data for the rad50 strain (AID 155);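 note: 0% = growth of vehicle-only cultures of the same strain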
Condition Parameters: S. cerevisiae rad50 strain growth inhibition; at 5.0 µM (retest, dose inferred, filed as 0.5); stronger effect = higher value
The panel holds about 79,000 compounds, 15% with a hit somewhere; the sample as a whole holds those more often.
Value Type: growth inhibition (%)
Could you give me the number in %? Just the number is fine.

Summary for this compound, CCCC1c2ccc(O)cc2CC1c1ccc(O)cc1 (centres undefined) : growth inhibition is -1

The compound COC1CC2CCC(C)[C@](O)(O2)C(=O)C(=O)N2CCCCC2C(=O)OC(C(C)CC2CCC(O)C(OC)C2)CC(=O)C(C)C=C(C)C(OC(=O)CCCN2CCCC2)C(OC)C(=O)C(C)CC(C)/C=C/C=C/C=C\1C (some centres undefined) showed growth inhibition equal to 96

For "O=C(CNc1cccc(Cl)c1)Nn1c(-c2ccccc2)nc2ccccc2c1=O" the compound record lists growth inhibition as 7

O=[N+]([O-])C1(CO)COC(CCc2ccccc2)OC1 (centres undefined) yielded growth inhibition of -2
